Values from ChEMBL document CHEMBL1158540

assay_target: Sodium-dependent noradrenaline transporter (Homo sapiens, UniProt P23975)
Sequence (P23975 whole entry): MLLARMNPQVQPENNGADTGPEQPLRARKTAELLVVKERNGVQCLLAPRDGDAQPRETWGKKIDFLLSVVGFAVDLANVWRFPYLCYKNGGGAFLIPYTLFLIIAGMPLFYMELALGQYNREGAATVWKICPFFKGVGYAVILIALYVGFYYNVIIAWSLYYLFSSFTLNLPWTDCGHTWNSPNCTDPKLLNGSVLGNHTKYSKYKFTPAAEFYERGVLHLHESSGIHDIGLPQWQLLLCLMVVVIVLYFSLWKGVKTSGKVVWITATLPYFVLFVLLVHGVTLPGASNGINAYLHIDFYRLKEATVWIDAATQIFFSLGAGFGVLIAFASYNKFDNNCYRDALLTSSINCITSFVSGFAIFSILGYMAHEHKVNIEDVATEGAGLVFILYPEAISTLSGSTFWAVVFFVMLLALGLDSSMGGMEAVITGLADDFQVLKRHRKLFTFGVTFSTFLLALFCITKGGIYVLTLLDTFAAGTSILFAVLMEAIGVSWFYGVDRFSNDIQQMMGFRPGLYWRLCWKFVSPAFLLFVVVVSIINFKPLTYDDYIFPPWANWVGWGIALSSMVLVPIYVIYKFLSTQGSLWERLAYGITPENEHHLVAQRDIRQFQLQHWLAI
property_measured: pIC50
// scale note: pIC50 = -log10(conc_M); give the bare number

OC1(C(CN2CCNCC2)c2cc(Cl)sc2Cl)CCCCC1 (centres undefined) ... 6.65

Name the recorded pIC50 of the item `CN1CCN(C[C@@H](c2csc(Cl)c2)C2(O)CCCCC2)CC1` in your answer.
4.74

Name the recorded pIC50 of the item CN1CCN(CC(c2csc(Cl)c2)C2(O)CCCCC2)CC1 (centres undefined) in your answer.
7.02

Name the recorded pIC50 of the item `CN1CCN(C[C@H](c2cccc(Cl)c2)C2(O)CCCCC2)CC1` in your answer.
7.52
